Biological target: human sphingosine-1-phosphate receptor 1 (S1P1) (Homo sapiens)
Sequence (P21453 whole entry): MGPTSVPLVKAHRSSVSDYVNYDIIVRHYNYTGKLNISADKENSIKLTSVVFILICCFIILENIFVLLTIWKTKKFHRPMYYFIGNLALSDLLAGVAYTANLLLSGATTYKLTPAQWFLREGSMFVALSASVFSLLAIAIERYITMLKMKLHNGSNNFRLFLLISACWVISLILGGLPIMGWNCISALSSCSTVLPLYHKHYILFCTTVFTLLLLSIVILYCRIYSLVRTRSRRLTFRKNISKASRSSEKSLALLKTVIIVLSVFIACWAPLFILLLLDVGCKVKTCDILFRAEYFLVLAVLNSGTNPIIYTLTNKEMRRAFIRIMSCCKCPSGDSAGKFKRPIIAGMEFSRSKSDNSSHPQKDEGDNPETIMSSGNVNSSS
Assay: Inhibition of cAMP production (HTRF cAMP HiRange), S1P1 CHO-K1 cells
Assay type: cell-based
Settings: inhibition of cAMP production; potency; read-out: hS1P1 CAMP pEC50 (converted)
Kindly state EC50 for each of the entries shown.

Enquiry: Entry COc1cccc(F)c1-c1noc(-c2ccc3c(cnn3C(C)C)c2)n1 [Compound 338] , system human sphingosine-1-phosphate receptor 1 (S1P1) (Homo sapiens): what EC50 was measured?
Return: > 316 nM

Enquiry: And the next one, COc1ccc(-c2nc(-c3ccc4c(c3)nnn4C(C)C)no2)c(C)c1 [Compound 90] ?
Return: > 316 nM

Enquiry: Consider next the compound CC(C)n1nnc2cc(-c3nc(-c4ccc(-c5ccccc5)cn4)no3)ccc21 [Compound 9] in the same way.
Return: > 316 nM
